# System: perception of saltiness
# PROTOCOL DETAILS: Na-solution DAP test: trained panel rates saltiness of compounds in sodium solution
# Format: in vivo
# RUN CONDITIONS: individual compounds in sodium solution; compound concentrations of 0.1, 1 and 10 ppm; DAP score greater than 3.1 indicates saltiness or salt enhancement
PROPERTY MEASURED: DAP in Na-Sol.
Lab note: write the figure by itself, no unit.

Worked examples, 2 compounds total:
| COMPOUND | PROPERTY MEASURED | OBSERVED MEASUREMENT |
| --- | --- | --- |
| CC(C)CNC(=O)/C=C/C=C/CCCCCC/C=C/c1ccc2c(c1)OCO2 [Compound 15] | DAP in Na-Sol. | 3.5 |
| COc1cc2c(c(OC)c1OC)-c1c(cc3c(c1OC)OCO3)C[C@H](C)[C@@](C)(O)C2 [Compound 44] | DAP in Na-Sol. | 3.8 |

Please look at the following compound next.
Data request: Fill in the recorded DAP in Na-Sol. for this compound, with perception of saltiness as test system: CC/C=C\C=C\C(O)C/C=C\CCCCCCCC(=O)O (stereo not drawn) [Compound 86]
Data returned: 3.9

###

# Test system: perception of saltiness
# PROTOCOL DETAILS: Na-solution DAP test: trained panel rates saltiness of compounds in sodium solution
# Type: in vivo
# RUN CONDITIONS: individual compounds in sodium solution; compound concentrations of 0.1, 1 and 10 ppm; DAP score greater than 3.1 indicates saltiness or salt enhancement
PROPERTY MEASURED: DAP in Na-Sol.
Lab note: write the figure by itself, no unit.

| COMPOUND | DAP in Na-Sol. |
| --- | --- |
| C=CC(C)(O)CC/C=C(\C)C(=O)OC1C(OCC2OC(OC(=O)C34CCC(C)(C)CC3C3=CCC5C6(C)CCC(OC7OC(COC8OCC(O)C(O)C8OC8OCC(O)C(O)C8O)C(O)C(O)C7O)C(C)(C)C6CCC5(C)C3(C)CC4O)C(OC3OC(C)C(OC4OCC(O)C(OC5OCC(O)C(O)C5O)C4O)C(O)C3O)C(OC(=O)/C(C)=C/CCC(C)(O)C=C)C2O)OC(C)C(O)C1O (centres unmarked) [Compound 35] | 3.7 |

Data request: Which DAP in Na-Sol. is listed for C=CCCCCCCC(C(=O)O)C(O)CC(=O)O (centres unmarked) [Compound 81] ?
Data returned: 3.2

###

# Tested on: perception of saltiness
# PROTOCOL DETAILS: Na-solution DAP test: trained panel rates saltiness of compounds in sodium solution
# Format: in vivo
# RUN CONDITIONS: individual compounds in sodium solution; compound concentrations of 0.1, 1 and 10 ppm; DAP score greater than 3.1 indicates saltiness or salt enhancement
PROPERTY MEASURED: DAP in Na-Sol.
Lab note: write the figure by itself, no unit.

Data request: Which DAP in Na-Sol. is listed for COc1cc(CNC(=O)CCCCCCC(C)C)ccc1O ?
Data returned: 4

Data request: Which DAP in Na-Sol. is listed for CC/C=C\C/C=C\C=C\[C@H](O)CCCCCCCC(=O)O ?
Data returned: 2.9

Data request: Which DAP in Na-Sol. is listed for CC(=O)OC1CCC2(C)C(COc3ccc4ccc(=O)oc4c3)C(C)(O)CCC2C1(C)C (centres unmarked) ?
Data returned: 3.2

Data request: Which DAP in Na-Sol. is listed for COC1CC(OC2CCC3(C=O)C(CCC4C3CCC3(C)C(C5=CC(=O)OC5)CCC43O)C2)OC(C)C1OC1OC(CO)C(O)C(O)C1O (centres unmarked) ?
Data returned: 3.2

Data request: Which DAP in Na-Sol. is listed for CCCCCCCCCCNC(C)=O ?
Data returned: 3.8

###

// reported DAP in Na-Sol. for each item listed
# Tested on: perception of saltiness
# PROTOCOL DETAILS: Na-solution DAP test: trained panel rates saltiness of compounds in sodium solution
# Type: in vivo
# RUN CONDITIONS: individual compounds in sodium solution; compound concentrations of 0.1, 1 and 10 ppm; DAP score greater than 3.1 indicates saltiness or salt enhancement
Lab note: write the figure by itself, no unit.

| COMPOUND | DAP in Na-Sol. |
| --- | --- |
| CC(C)C(=O)c1c2c(c3oc(=O)cc(-c4ccccc4)c3c1O)CC(C(C)(C)O)O2 (centres unmarked) | 3.8 |
| COc1cc(C2c3cc4c(cc3CC3COC(=O)C32)OCO4)cc(OC)c1OC (centres unmarked) | 3.3 |
| COc1c2ccoc2cc2oc(=O)ccc12 | 3.9 |
| COc1c2ccoc2c(OCC=C(C)C)c2oc(=O)ccc12 | 3.3 |

Data request: Which DAP in Na-Sol. is listed for CC1CCC2(OC1)OC1CC3C4CCC5CC(OC6OC(CO)C(OC7OC(CO)C(O)C(OC8OC(CO)C(O)C(OC9OCC(O)C(O)C9O)C8O)C7O)C(OC7OCC(O)C(O)C7O)C6O)CCC5(C)C4CC(=O)C3(C)C1C2C (centres unmarked) ?
Data returned: 3.7

Data request: Which DAP in Na-Sol. is listed for C/C=C1\C(=O)CC2C3CCC4=CC(=O)CCC4(C)C3CCC12C (centres unmarked) ?
Data returned: 3.6

Data request: Which DAP in Na-Sol. is listed for C[C@]12CC[C@H](O)C[C@H]1CC[C@@H]1[C@@H]2CC[C@]2(C)[C@@H](C3=CC(=O)OC3)CC[C@]12O ?
Data returned: 3.5

Data request: Which DAP in Na-Sol. is listed for CC(C)=CCOc1c2occc2cc2ccc(=O)oc12 ?
Data returned: 3.7

###

# System: perception of saltiness
# PROTOCOL DETAILS: Na-solution DAP test: trained panel rates saltiness of compounds in sodium solution
# Format: in vivo
# RUN CONDITIONS: individual compounds in sodium solution; compound concentrations of 0.1, 1 and 10 ppm; DAP score greater than 3.1 indicates saltiness or salt enhancement
// reported DAP in Na-Sol. for each item listed
Lab note: write the figure by itself, no unit.

Worked examples, 3 compounds total:
| COMPOUND | DAP in Na-Sol. |
| --- | --- |
| COC1CC(OC2CCC3(C=O)C(CCC4C3CCC3(C)C(C5=CC(=O)OC5)CCC43O)C2)OC(C)C1O (stereo not shown) | 3.4 |
| C=CCCCCCCCCCCCC(CC(O)COC(C)=O)OC(C)=O (stereo not shown) | 4.2 |
| CC1(C)CC[C@]2(C(=O)O)CC[C@]3(C)C(=CCC4[C@@]5(C)C[C@@H](O)[C@H](O)C(C)(C)C5CC[C@]43C)C2C1 (stereo partly shown) | 3.1 |

Data request: Which DAP in Na-Sol. is listed for C=CCCCCCCCCCCC[C@H](O)C[C@H](O)CO ?
Data returned: 3.8

###

// reported DAP in Na-Sol. for each item listed
# Tested on: perception of saltiness
# PROTOCOL DETAILS: Na-solution DAP test: trained panel rates saltiness of compounds in sodium solution
# Assay type: in vivo
# RUN CONDITIONS: individual compounds in sodium solution; compound concentrations of 0.1, 1 and 10 ppm; DAP score greater than 3.1 indicates saltiness or salt enhancement
Lab note: write the figure by itself, no unit.

Worked examples, 2 compounds total:
| COMPOUND | DAP in Na-Sol. |
| --- | --- |
| CC(=O)O[C@@H]1CC2C(C)(C)C(=O)C=C[C@]2(C)C2CC[C@]3(C)C(=CC(=O)C3c3ccoc3)[C@@]21C (stereo partly drawn) | 3.2 |
| COc1cc2oc(=O)ccc2c(OC)c1CC=C(C)C | 3.6 |

Please look at the following compound next.
Data request: Which DAP in Na-Sol. is listed for CC(=O)OC1C(O)COC(OC2C(O)C(C)OC(OC(C)(CCC=C(C)C)C3C(O)CC4(C)C3CCC3C5(C)CCC(OC6OCC(O)C(O)C6O)C(C)(C)C5CCC34C)C2O)C1O (stereo not drawn) ?
Data returned: 3.9
